# Kd listing for each entry below
# Study System: equine FcRn (large alpha subunit p51) / equine beta-2-microglobulin complex, biotinylated (equine) (UniProt P30441)
# Assay Method Text: SPR (Biacore), pH 6
Your answer should be a plain number; it is taken to be in nM.

Binder: equine IgG1 N434K (antibody, part only; not given: variable domains, not shown: another chain or arm of the molecule) constant: ASTTAPKVFALAPGCGTTSDSTVALGCLVSGYFPEPVKVSWNSGSLTSGVHTFPSVLQSSGFYSLSSMVTVPASTWTSETYICNVVHAASNFKVDKRIEPIPDNHQKVCDMSKCPKCPAPELLGGPSVFIFPPNPKDTLMITRTPEVTCVVVDVSQENPDVKFNWYMDGVEVRTATTRPKEEQFNSTYRVVSVLRIQHQDWLSGKEFKCKVNNQALPQPIERTITKTKGRSQEPQVYVLAPHPDELSKSKVSVTCLVKDFYPPEINIEWQSNGQPELETKYSTTQAQQDSDGSYFLYSKLSVDRNRWQQGTTFTCGVMHEALHKHYTQKNVSKNPGK
Endpoint Result: 17.5
//
Binder: equine IgG1 Q311V (antibody, part only; not given: variable domains, not shown: another chain or arm of the molecule) constant: ASTTAPKVFALAPGCGTTSDSTVALGCLVSGYFPEPVKVSWNSGSLTSGVHTFPSVLQSSGFYSLSSMVTVPASTWTSETYICNVVHAASNFKVDKRIEPIPDNHQKVCDMSKCPKCPAPELLGGPSVFIFPPNPKDTLMITRTPEVTCVVVDVSQENPDVKFNWYMDGVEVRTATTRPKEEQFNSTYRVVSVLRIQHVDWLSGKEFKCKVNNQALPQPIERTITKTKGRSQEPQVYVLAPHPDELSKSKVSVTCLVKDFYPPEINIEWQSNGQPELETKYSTTQAQQDSDGSYFLYSKLSVDRNRWQQGTTFTCGVMHEALHNHYTQKNVSKNPGK
Endpoint Result: 16.3

[ask] Respond only with Kd recorded for equine IgG1 Y436M (antibody, part only; not given: variable domains, not shown: another chain or arm of the molecule) constant: ASTTAPKVFALAPGCGTTSDSTVALGCLVSGYFPEPVKVSWNSGSLTSGVHTFPSVLQSSGFYSLSSMVTVPASTWTSETYICNVVHAASNFKVDKRIEPIPDNHQKVCDMSKCPKCPAPELLGGPSVFIFPPNPKDTLMITRTPEVTCVVVDVSQENPDVKFNWYMDGVEVRTATTRPKEEQFNSTYRVVSVLRIQHQDWLSGKEFKCKVNNQALPQPIERTITKTKGRSQEPQVYVLAPHPDELSKSKVSVTCLVKDFYPPEINIEWQSNGQPELETKYSTTQAQQDSDGSYFLYSKLSVDRNRWQQGTTFTCGVMHEALHNHMTQKNVSKNPGK
[reply] 11.1

[ask] Respond only with Kd recorded for equine IgG1 T286I (antibody, part only; not given: variable domains, not shown: another chain or arm of the molecule) constant: ASTTAPKVFALAPGCGTTSDSTVALGCLVSGYFPEPVKVSWNSGSLTSGVHTFPSVLQSSGFYSLSSMVTVPASTWTSETYICNVVHAASNFKVDKRIEPIPDNHQKVCDMSKCPKCPAPELLGGPSVFIFPPNPKDTLMITRTPEVTCVVVDVSQENPDVKFNWYMDGVEVRIATTRPKEEQFNSTYRVVSVLRIQHQDWLSGKEFKCKVNNQALPQPIERTITKTKGRSQEPQVYVLAPHPDELSKSKVSVTCLVKDFYPPEINIEWQSNGQPELETKYSTTQAQQDSDGSYFLYSKLSVDRNRWQQGTTFTCGVMHEALHNHYTQKNVSKNPGK
[reply] 18.2

[ask] Respond only with Kd recorded for equine IgG4 K311T (antibody, part only; not given: variable domains, not shown: another chain or arm of the molecule) constant: ASTTAPKVFPLASHSAATSGSTVALGCLVSSYFPEPVTVSWNSGALTSGVHTFPSVLQSSGLYSLSSMVTVPASSLKSQTYICNVAHPASSTKVDKKIVIKECNGGCPAECLQVGPSVFIFPPKPKDVLMISRTPTVTCVVVDVGHDFPDVQFNWYVDGVETHTATTEPKQEQFNSTYRVVSVLPIQHTDWLSGKEFKCKVNNKALPAPVERTISKPTGQPREPQVYVLAPHRDELSKNKVSVTCLVKDFYPTDIDIEWKSNGQPEPETKYSTTPAQLDSDGSYFLYSKLTVETNRWQQGTTFTCAVMHEALHNHYTEKSVSKSPGK
[reply] 25.5
